Assay: self-splicing fitness, log relative to wild type (ln ratio); higher = more splicing; Tetrahymena group I intron in knt gene, E. coli kanamycin selection, DiMSum; sequences stand for … in CUCUCU…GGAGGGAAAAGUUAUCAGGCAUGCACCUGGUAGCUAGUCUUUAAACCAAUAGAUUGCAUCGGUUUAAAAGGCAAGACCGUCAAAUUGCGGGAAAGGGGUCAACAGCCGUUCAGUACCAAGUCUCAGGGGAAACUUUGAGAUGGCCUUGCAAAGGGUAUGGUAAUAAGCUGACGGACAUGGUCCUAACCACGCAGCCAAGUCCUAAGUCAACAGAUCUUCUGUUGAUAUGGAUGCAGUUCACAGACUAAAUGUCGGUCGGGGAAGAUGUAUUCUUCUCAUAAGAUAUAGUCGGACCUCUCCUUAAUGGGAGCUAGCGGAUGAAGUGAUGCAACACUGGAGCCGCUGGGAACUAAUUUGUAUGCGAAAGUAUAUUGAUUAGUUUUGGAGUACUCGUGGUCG;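 further: selection with 25 µg/mL kanamycin versus none on LB agar overnight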
Conditions: 37 °C
measurement.type: self-splicing fitness (ln)
The reply should be a number, written without any unit.

Solved entries (count: 5):
AUAAAGCAAUAUUACGCAAC = -1.34
GAAGAGCAAUAUUACGCACU = -1.33
AUGAAGCAAUAUUACGCAAU = -0.743
UGAUAGCAAUAUUACGUCUU = -1.33
GGCUAGCAAUAUUACGGGGC = -2.08

Which self-splicing fitness (ln) reading was recorded for the sequence CCGGAGCAAUAUUACGUAAA ?
-2.09

Which self-splicing fitness (ln) reading was recorded for the sequence GCAUAGCAAUAUUACGAGUC ?
-2.7

Which self-splicing fitness (ln) reading was recorded for the sequence GGUGAGCAAUAUUACGUAAC ?
-1.22

Which self-splicing fitness (ln) reading was recorded for the sequence GAUGAGCAAUAUUACGGAAC ?
0.0424

Which self-splicing fitness (ln) reading was recorded for the sequence GUUCAGCAAUAUUACGUAAU ?
0.484

* * *

Assay: self-splicing fitness, log relative to wild type (ln ratio); higher = more splicing; Tetrahymena group I intron in knt gene, E. coli kanamycin selection, DiMSum; sequences stand for … in CUCUCU…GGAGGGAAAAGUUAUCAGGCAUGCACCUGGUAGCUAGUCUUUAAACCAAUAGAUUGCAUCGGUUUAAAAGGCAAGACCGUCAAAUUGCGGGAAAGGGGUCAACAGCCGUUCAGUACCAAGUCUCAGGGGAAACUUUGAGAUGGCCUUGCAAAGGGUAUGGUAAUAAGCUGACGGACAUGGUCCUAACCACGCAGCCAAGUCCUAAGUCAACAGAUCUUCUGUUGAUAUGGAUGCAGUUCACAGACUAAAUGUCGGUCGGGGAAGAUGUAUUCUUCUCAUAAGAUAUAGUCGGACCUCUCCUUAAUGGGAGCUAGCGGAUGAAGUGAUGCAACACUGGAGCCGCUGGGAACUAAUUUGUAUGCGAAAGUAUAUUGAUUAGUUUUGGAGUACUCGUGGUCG
Details: 37 °C
Parameter self-splicing fitness (ln): see the listing below.
The reply should be a number, written without any unit.

Solved entries (count: 5):
CCUAAGCAAUAUUACGCAUG = -1.51
UCGGAGCAAUAUUACGUCAA = -2.12
CCUCAGCAAUAUUACGAUAU = -0.929
AGCUAGCAAUAUUACGGUCU = 0.136
UGUCAGCAAUAUUACGUGAC = -2.81

Which self-splicing fitness (ln) reading was recorded for the sequence GAACAGCAAUAUUACGCUAC ?
-1.64

Which self-splicing fitness (ln) reading was recorded for the sequence UUCUAGCAAUAUUACGCUGA ?
-0.752

Which self-splicing fitness (ln) reading was recorded for the sequence GACGAGCAAUAUUACGUUUU ?
-1.61

Which self-splicing fitness (ln) reading was recorded for the sequence CGUAAGCAAUAUUACGAGGC ?
-1.99

Which self-splicing fitness (ln) reading was recorded for the sequence UCUGAGCAAUAUUACGUGAC ?
-2.97

Which self-splicing fitness (ln) reading was recorded for the sequence GGUGAGCAAUAUUACGAGGU ?
-1.68

Which self-splicing fitness (ln) reading was recorded for the sequence UAGAAGCAAUAUUACGGCCU ?
-1.15

Which self-splicing fitness (ln) reading was recorded for the sequence GGGUAGCAAUAUUACGGAUA ?
-1.08

Which self-splicing fitness (ln) reading was recorded for the sequence AUUGAGCAAUAUUACGUCUC ?
-2.21

Which self-splicing fitness (ln) reading was recorded for the sequence AUUGAGCAAUAUUACGAGGG ?
-2.85

Which self-splicing fitness (ln) reading was recorded for the sequence GUUAAGCAAUAUUACGCGCC ?
-1.56

Which self-splicing fitness (ln) reading was recorded for the sequence AGCGAGCAAUAUUACGGGAA ?
-1.86

Which self-splicing fitness (ln) reading was recorded for the sequence AUCUAGCAAUAUUACGCAUA ?
-1.69

Which self-splicing fitness (ln) reading was recorded for the sequence CGACAGCAAUAUUACGCAUG ?
-0.351

Which self-splicing fitness (ln) reading was recorded for the sequence AACCAGCAAUAUUACGAUCU ?
0.391

Which self-splicing fitness (ln) reading was recorded for the sequence UGAGAGCAAUAUUACGCAGC ?
-2.16

Which self-splicing fitness (ln) reading was recorded for the sequence GCUCAGCAAUAUUACGUACC ?
0.487

Which self-splicing fitness (ln) reading was recorded for the sequence UGGCAGCAAUAUUACGGCCU ?
-1.57

Which self-splicing fitness (ln) reading was recorded for the sequence UUCGAGCAAUAUUACGCGGC ?
-2.29

Which self-splicing fitness (ln) reading was recorded for the sequence AAUGAGCAAUAUUACGCAUG ?
-0.519

Which self-splicing fitness (ln) reading was recorded for the sequence CCCUAGCAAUAUUACGCCAC ?
-1.6

Which self-splicing fitness (ln) reading was recorded for the sequence GUAAAGCAAUAUUACGUUGG ?
-1.56

Which self-splicing fitness (ln) reading was recorded for the sequence GUUAAGCAAUAUUACGUCGA ?
-1.02

Which self-splicing fitness (ln) reading was recorded for the sequence CGACAGCAAUAUUACGGGGG ?
-2.51

Which self-splicing fitness (ln) reading was recorded for the sequence UUCAAGCAAUAUUACGAACU ?
-1.62
